Entry source: BigSolDB 2.1

Conditions: in acetonitrile, 318.15 K
measured_attribute: solubility (mole fraction)

Exam item: Any idea what its solubility (mole fraction) is? The compound is O=P(O)(O)c1ccccc1
Marked response: 0.0365

====

Conditions: in n-propanol, 313.15 K
measured_attribute: solubility (mole fraction)

Exam item: Any idea what its solubility (mole fraction) is? The compound is O=P(O)(O)c1ccccc1
Marked response: 0.445

====

Conditions: in ethyl acetate, 303.15 K
measured_attribute: solubility (mole fraction)

Exam item: Any idea what its solubility (mole fraction) is? The compound is O=P(O)(O)c1ccccc1
Marked response: 0.00896

====

Conditions: in ethyl acetate, 313.15 K
measured_attribute: solubility (mole fraction)
Respond numerically, and do not add a unit to the figure.

Exam item: Any idea what its solubility (mole fraction) is? The compound is O=P(O)(O)c1ccccc1
Marked response: 0.0127

====

Conditions: in ethyl acetate, 288.15 K
measured_attribute: solubility (mole fraction)
Respond numerically, and do not add a unit to the figure.

Exam item: Any idea what its solubility (mole fraction) is? The molecule is O=P(O)(O)c1ccccc1
Marked response: 0.00523

====

Details: in n-propanol, 293.15 K
measured_attribute: solubility (mole fraction)
Respond numerically, and do not add a unit to the figure.

Exam item: Any idea what its solubility (mole fraction) is? The compound is O=P(O)(O)c1ccccc1
Marked response: 0.336

====

Settings: in acetonitrile, 288.15 K
measured_attribute: solubility (mole fraction)
Respond numerically, and do not add a unit to the figure.

Exam item: Any idea what its solubility (mole fraction) is? The compound is O=P(O)(O)c1ccccc1
Marked response: 0.0136

====

Conditions: in acetone, 303.15 K
measured_attribute: solubility (mole fraction)
Respond numerically, and do not add a unit to the figure.

Exam item: Any idea what its solubility (mole fraction) is? The molecule is O=P(O)(O)c1ccccc1
Marked response: 0.197

====

Details: in n-propanol, 298.15 K
measured_attribute: solubility (mole fraction)
Respond numerically, and do not add a unit to the figure.

Exam item: Any idea what its solubility (mole fraction) is? The compound is O=P(O)(O)c1ccccc1
Marked response: 0.358

====

Conditions: in chloroform, 303.15 K
measured_attribute: solubility (mole fraction)
Respond numerically, and do not add a unit to the figure.

Exam item: Any idea what its solubility (mole fraction) is? The compound is O=P(O)(O)c1ccccc1
Marked response: 0.00211

====

Conditions: in chloroform, 318.15 K
measured_attribute: solubility (mole fraction)

Exam item: Any idea what its solubility (mole fraction) is? The molecule is O=P(O)(O)c1ccccc1
Marked response: 0.00393

====

Conditions: in chloroform, 293.15 K
measured_attribute: solubility (mole fraction)
Respond numerically, and do not add a unit to the figure.

Exam item: Any idea what its solubility (mole fraction) is? The compound is O=P(O)(O)c1ccccc1
Marked response: 0.00134

====

Details: in n-propanol, 303.15 K
measured_attribute: solubility (mole fraction)
Respond numerically, and do not add a unit to the figure.

Exam item: Any idea what its solubility (mole fraction) is? The molecule is O=P(O)(O)c1ccccc1
Marked response: 0.388
